Target or system human GhrR (hGhrR-eYFP, HEK293 cell membranes) (Homo sapiens, UniProt Q92847): recorded IC50 listed per item.
Measure Name: IC50 (µM)

1) Cc1nc2ccc(Oc3ccc(Br)cc3)nc2c(=O)n1C[C@H]1CCCN(C(C)C)C1 [(S)-14] ... 0.0123
2) Cc1nc2ccc(Oc3ccc(Br)cc3F)nc2c(=O)n1C[C@H]1CCCN(C(C)CF)C1 (stereo partly drawn) [(S)-13] ... 0.0126
3) Cc1nc2ccc(Oc3ccc(Br)cc3F)nc2c(=O)n1C[C@H]1CCCN(C(C)C)C1 [(S)-9] ... 0.00219
4) Cc1nc2ccc(Oc3ccc(Br)cc3F)nc2c(=O)n1C[C@H]1CCCN(CCF)C1 [(S)-10] ... 0.069

a. Cc1nc2ccc(Oc3ccc(Br)cc3F)nc2c(=O)n1C[C@H]1CCCN(CCCF)C1 [(S)-11]
b. CC(C)N1CCC[C@H](Cn2c(F)nc3ccc(Oc4ccc(Br)cc4F)nc3c2=O)C1 [(S)-17]
c. Cc1nc2ccc(Oc3ccc(Br)cc3F)nc2c(=O)n1C[C@H]1CCCN(CCCCF)C1 [(S)-12]
d. Cc1nc2ccc(Oc3ccc(Br)cc3F)nc2c(=O)n1C[C@@H]1CCCN(C(C)C)C1 [(R)-9]
e. CC(C)N1CCC[C@H](Cn2cnc3ccc(Oc4ccc(Br)cc4F)nc3c2=O)C1 [(S)-16]
Query: Please list these compounds in decreasing order of IC50. Rank the items, then write their labels in that order.
Reply: c, b, a, d, e
(c: 0.574 µM, b: 0.151 µM, a: 0.066 µM, d: 0.00389 µM, e: 0.00269 µM)
